Cited source for all entries: patent US11180770B2

# System: HPPD polypeptides
# ASSAY_PROTOCOL: coupled HPPD activity assay: turnover and residual turnover in crude extracts
# Format: biochemical, Pseudomonas fluorescens
# TEST_CONDITIONS: absence of Cmpd. 1; high substrate concentration; kinetic changes in absorbance (OD) at 320 nm, 30 min
# Procedure: The activity of HPPD polypeptides was determined in absence or presence of HPPD inhibitors using the coupled HPPD activity assay (FIG. 1). […] Residual turnover were determined according to Example 3 by measuring total change in signal in the presence and absence of Cmpd. […]
Reported Turnover is given for each of the following molecules.
Lab note: jot the number down without any unit.

Would you please look over these solved cases?
56 (protein, mutant HPPD polypeptide) MADLYENPMGLMGFEFIEFASPTPGTLEPIFEIMGFTKVATHRSKNVHLYRQGEINLILNNEPNSIASYFAAEHGPSVCGMAFRVKDSQKAYNRALELGAQPIHIDTGPMELNLPAIKGIGGAPLYLIDRFGEGSSIYDIDFVYLEGVERNPVGAGLKVIDHLTHNVYRGRMVYWANFYEKLFNFREARYFDIKGEYTGLTSKAMSAPDGMIRIPLNEESSKGAGQIEEFLMQFNGEGIQHVAFLTDDLVKTWDALKKIGMRFMTAPADNYYEMLEGRLPDHGEPVDQLQARGILLDGSSVEGDKRLLLQIFSETLMGPVFFEFIQRKGDDGFGPHSFKVLFEQIERDQVRRGVLTAD    0.152
33 (protein, mutant HPPD polypeptide) MADLYENPMGLMGFEFIEFASPTPGTLEPIFEIMGFTKVATHRSKNVHLYRQGEINLILNNEPNSIASYFAAEHGPSVCGMAFRVKDSQKAYNRALELGAQPIHIDTGPMELNLPAIKGIGGAPLYLIDRFGEGSSIYDIDFVYLEGVERNPVGAGLKVIDHLTHNVYRGRMVYWANFYEKLFNFREARYFDIKGEYTGLTSKAMSAPDGMIRIPLNEESSKGAGQIEEFLMQFNGEGIQHVAFLTDDLVKTWDALKKIGMRFMTAPADNYYEMLEGRLPDHGEPVDQLQARGILLDGSSVEGDKRLLLQIFSETLMGPVFFEFIQRKGDDGFGPHSFKVLFESVERDQVRRGVLTAD    0.189
8 (protein, mutant HPPD polypeptide) MADLYENPMGLMGFEFIEFASPTPGTLEPIFEIMGFTKVATHRSKNVHLYRQGEINLILNNEPNSIASYFAAEHGPSVCGMAFRVKDSQKAYNRALELGAQPIHIDTGPMELNLPAIKGIGGAPLYLIDRFGEGSSIYDIDFVYLEGVERNPVGAGLKVIDHLTHNVYRGRMVYWANFYEKLFNFREARYFDIKGEYTGLTSKAMSAPDGMIRIPLNEESSKGAGQIEEFLMQFNGEGIQHVAFLTDDLVKTWDALKKIGMRFMTAPPDNYYEMLEGRLPDHGEPVDQLQARGILLDGSSVEGDKRLLLQIFSETLMGPVFFEFIQRKGDDGFGPDSFKVLFESIERDQVRRGVLTAD    0.107

With those in mind, consider the next molecule.
Q. Query (molecule): 35 (protein, mutant HPPD polypeptide) MADLYENPMGLMGFEFIEFASPTPGTLEPIFEIMGFTKVATHRSKNVHLYRQGEINLILNNEPNSIASYFAAEHGPSVCGMAFRVKDSQKAYNRALELGAQPIHIDTGPMELNLPAIKGIGGAPLYLIDRFGEGSSIYDIDFVYLEGVERNPVGAGLKVIDHLTHNVYRGRMVYWANFYEKLFNFREARYFDIKGEYTGLTSKAMSAPDGMIRIPLNEESSKGAGQIEEFLMQFNGEGIQHVAFLTDDLVKTWDALKKIGMRFMTAPPDNYYEMLEGRLPDHGEPVDQLQARGILLDGSSVEGDKRLLLQIFSETLMGPVFFEFIQRKGDDGFGPHSFKVLFESVERDQVRRGVLTAD ; field requested: Turnover
A. 0.036
